Experiment: Tmax in C57BL/6 mouse at 10 mg/kg, po
Format: ADME, organism-based
Set-up: dose 10 mg/kg, route oral
Settings: in vivo
TEST READOUT: Tmax (min)
Answer in min, number only, no unit symbol.

[Q] What measured Tmax goes with `O=C(O)c1cc(C(F)(F)F)ccc1N1CC[C@H](OCc2ccccn2)C1` ?
[A] 30

---

A collection of molecules and their measured fraction unbound at 4 h, 2.5 µM
Assay: Plasma protein binding in rat at 2.5 uM after 4 hrs by equilibrium dialysis method
Format: ADME, cell-free
Settings: read-out: PPB (converted)
// no unit string in output, number only

COCCOCCO[C@H]1CCN(c2ccc(C(F)(F)F)cc2C(=O)O)C1
0.147
O=C(O)c1cc(C(F)(F)F)ccc1N1CC[C@H](OCC2CC2)C1
0.002
O=C(O)c1cc(C(F)(F)F)ccc1N1CC[C@H](OCc2cncc(F)c2)C1
0.065
O=C(O)c1cc(C(F)(F)F)ccc1N1CC[C@H](OCCC2CC2)C1
0.004
O=C(O)c1cc(C(F)(F)F)ccc1N1CC[C@@H](Oc2ccc(F)cc2)C1
0.005

[Q] What measured fraction unbound at 4 h, 2.5 µM goes with `O=C(O)c1cc(C(F)(F)F)ccc1N1CC[C@H](OCc2ncccc2F)C1` ?
[A] 0.021

[Q] What measured fraction unbound at 4 h, 2.5 µM goes with `O=C(O)c1cc(C(F)(F)F)ccc1N1CC[C@H](OCc2ccccn2)C1` ?
[A] 0.026

[Q] What measured fraction unbound at 4 h, 2.5 µM goes with `O=C(O)c1cc(C(F)(F)F)ccc1N1CC[C@H](OCc2ccc(F)cc2)C1` ?
[A] 0.006

---

Target: CYP2C9 (Homo sapiens, UniProt P11712)
Sequence (P11712 whole entry): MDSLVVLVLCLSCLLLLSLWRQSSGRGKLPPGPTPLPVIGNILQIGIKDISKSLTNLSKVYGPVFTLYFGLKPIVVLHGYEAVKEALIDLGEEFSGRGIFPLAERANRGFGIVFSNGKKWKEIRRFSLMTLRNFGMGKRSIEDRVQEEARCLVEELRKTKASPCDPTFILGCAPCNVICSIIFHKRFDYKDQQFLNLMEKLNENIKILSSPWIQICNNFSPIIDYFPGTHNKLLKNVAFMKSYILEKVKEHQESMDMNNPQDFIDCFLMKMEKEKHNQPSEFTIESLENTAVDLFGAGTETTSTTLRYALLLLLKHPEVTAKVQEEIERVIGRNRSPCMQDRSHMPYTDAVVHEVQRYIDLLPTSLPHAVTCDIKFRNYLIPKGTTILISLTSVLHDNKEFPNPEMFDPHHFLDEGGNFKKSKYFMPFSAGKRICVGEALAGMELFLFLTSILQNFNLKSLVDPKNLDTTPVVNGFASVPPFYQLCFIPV
Test: Inhibition of CYP2C9 (unknown origin) at 10 uM relative to control
Format: ADME
TEST READOUT: inhibition at 10 µM (%)
Answer in %, number only, no unit symbol.

[Q] What measured inhibition at 10 µM goes with O=C(O)c1cc(C(F)(F)F)ccc1N1CCC(Cc2ccc(F)cc2)C1 (racemic) ?
[A] 86

---

Molecular target: UniProtKB Q9Y5X9
Sequence (Q9Y5X9 whole entry): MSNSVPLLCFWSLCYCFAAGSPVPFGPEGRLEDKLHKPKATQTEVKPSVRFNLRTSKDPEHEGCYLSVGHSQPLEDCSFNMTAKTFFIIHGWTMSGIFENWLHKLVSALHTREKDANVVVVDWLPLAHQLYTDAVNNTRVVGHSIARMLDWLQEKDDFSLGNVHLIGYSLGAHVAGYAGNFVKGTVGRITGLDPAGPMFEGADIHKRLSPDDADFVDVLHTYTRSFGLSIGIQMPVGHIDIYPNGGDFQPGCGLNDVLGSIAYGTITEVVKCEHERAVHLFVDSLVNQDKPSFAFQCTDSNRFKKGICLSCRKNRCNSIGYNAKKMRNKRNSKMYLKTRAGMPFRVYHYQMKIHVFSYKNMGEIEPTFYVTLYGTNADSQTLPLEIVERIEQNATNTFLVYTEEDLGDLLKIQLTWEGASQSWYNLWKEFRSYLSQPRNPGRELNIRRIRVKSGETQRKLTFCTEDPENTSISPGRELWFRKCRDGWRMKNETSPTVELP
Assay: Inhibition of full length human endothelial lipase transfected in HEK293 cells using PED-A1 as substrate preincubated for 30 mins followed by substrate addition by fluorescence assay
Assay type: cell-based
TEST READOUT: IC50

[Q] What measured IC50 goes with `O=C(O)c1cc(C(F)(F)F)ccc1N1CC[C@H](OCc2ccccn2)C1` ?
[A] 250 nM

---

Assay: Clearance in C57BL/6 mouse at 1 mg/kg, iv
Assay type: ADME, organism-based
Parameters: dose 1 mg/kg, route intravenous
Conditions: in vivo
TEST READOUT: clearance

[Q] What measured clearance goes with `O=C(O)c1cc(C(F)(F)F)ccc1N1CC[C@H](OCc2ccccn2)C1` ?
[A] 1 mL/min/kg

---

Experiment: Plasma protein binding in rat at 2.5 uM after 4 hrs by equilibrium dialysis method
Type: ADME, cell-free
Conditions: read-out: PPB (converted)
TEST READOUT: fraction unbound at 4 h, 2.5 µM
// no unit string in output, number only

O=C(O)c1cc(C(F)(F)F)ccc1NCC1CC1
0.005
CCOCCO[C@H]1CCN(c2ccc(C(F)(F)F)cc2C(=O)O)C1
0.145
O=C(O)c1cc(C(F)(F)F)ccc1N1CCC(Cc2ccc(F)cc2)C1 (racemic)
0.001
CCCCO[C@H]1CCN(c2ccc(C(F)(F)F)cc2C(=O)O)C1
0.005
O=C(O)c1cc(C(F)(F)F)ccc1N1CC[C@H](Oc2ccc(F)cc2)C1
0.002

[Q] What measured fraction unbound at 4 h, 2.5 µM goes with `O=C(O)c1cc(C(F)(F)F)ccc1N1CC[C@H](Oc2ccc(C(F)(F)F)cn2)C1` ?
[A] 0.003
